biological target: Wee1 (h) (Homo sapiens, UniProt P30291); experiment: Wee1 kinase (h) detection method, [γ-33P]-ATP filter assay; type: biochemical; conditions: C 1 μm compound
Sequence (P30291 whole entry): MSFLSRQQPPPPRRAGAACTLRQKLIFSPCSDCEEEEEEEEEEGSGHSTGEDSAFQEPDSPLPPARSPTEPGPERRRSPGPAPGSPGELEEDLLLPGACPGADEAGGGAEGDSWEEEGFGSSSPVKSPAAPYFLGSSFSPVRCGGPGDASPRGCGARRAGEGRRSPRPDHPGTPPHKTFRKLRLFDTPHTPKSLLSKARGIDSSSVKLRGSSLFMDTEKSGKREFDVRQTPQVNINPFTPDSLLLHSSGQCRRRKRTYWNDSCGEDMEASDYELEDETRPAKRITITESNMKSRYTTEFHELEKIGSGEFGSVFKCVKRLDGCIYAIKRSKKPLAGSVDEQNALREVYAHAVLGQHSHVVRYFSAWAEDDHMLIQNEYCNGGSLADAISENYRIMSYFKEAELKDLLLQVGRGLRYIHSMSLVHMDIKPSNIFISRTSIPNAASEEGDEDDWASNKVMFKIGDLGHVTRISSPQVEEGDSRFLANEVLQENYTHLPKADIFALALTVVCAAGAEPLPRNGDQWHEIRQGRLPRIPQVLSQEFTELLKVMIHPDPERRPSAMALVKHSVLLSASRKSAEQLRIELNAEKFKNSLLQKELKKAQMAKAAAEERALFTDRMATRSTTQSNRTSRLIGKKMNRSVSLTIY
readout-kind: Inh. (%) of Wee1 kinase enzyme activity

smiles-code	measured-on	Inh. (%) of Wee1 kinase enzyme activity
Cc1cc(Nc2ncc3c(n2)N2CCN=C2N(c2c(C)cccc2Cl)C3=O)cc(Cl)c1N1CCN(C)CC1	Wee1 (h) (Homo sapiens, UniProt P30291)	94
CN(C)CCN(C)c1ccc(Nc2ncc3c(n2)N2CCN=C2N(c2c(F)cccc2Cl)C3=O)cc1	Wee1 (h) (Homo sapiens, UniProt P30291)	96
CN1CCN(c2ccc(Nc3ncc4c(n3)N3CCN=C3N(c3c(Cl)cccc3Cl)C4=O)cc2C(F)(F)F)CC1	Wee1 (h) (Homo sapiens, UniProt P30291)	83
CN1CCN(c2ccc(Nc3ncc4c(n3)N3CCN=C3N(c3ccc(Cl)cc3Cl)C4=O)cc2)CC1	Wee1 (h) (Homo sapiens, UniProt P30291)	75
C[C@@H]1CN(c2ccc(Nc3ncc4c(n3)N3CCN=C3N(c3c(F)cccc3Cl)C4=O)cc2C(F)(F)F)C[C@H](C)N1C	Wee1 (h) (Homo sapiens, UniProt P30291)	95
Cc1cc(Nc2ncc3c(n2)N2CCN=C2N(c2c(F)cccc2F)C3=O)ccc1N1CCN(C)CC1	Wee1 (h) (Homo sapiens, UniProt P30291)	91
CN1CCN(c2ccc(Nc3ncc4c(n3)N3CCN=C3N(c3c(Cl)cccc3Cl)C4=O)cc2F)CC1	Wee1 (h) (Homo sapiens, UniProt P30291)	97
